Assay: Stability in human plasma
Type: in vitro ADME
Details: human, plasma; 2 μM, 37° C.; read-out: half-life (t1/2) in human plasma
Where a SMILES comes first, the peptide text is derived from it. [ ]: non-standard residue; d: D form. ξ: configuration not given here. ξαMeBip(2'-Et,4'-OMe) = CCc1cc(OC)ccc1-c1ccc(CC(C)(N)C(=O)O)cc1; ξBip(2'-Et-4'-OMe) = CCc1cc(OC)ccc1-c1ccc(CC(N)C(=O)O)cc1; ξαMePhe(2,6-F2) = CC(N)(Cc1c(F)cccc1F)C(=O)O; ξαMe(hhPhe) = CC(N)(CCCc1ccccc1)C(=O)O; ξhhPhe = NC(CCCc1ccccc1)C(=O)O; ξαMeD = CC(N)(CC(=O)O)C(=O)O; ξαMeP = CC1(C(=O)O)CCCN1; Aib = CC(C)(N)C(=O)O
Please respond with reported half-life for every item in the list.
One number for each entry, in h.

Solved cases below.
{"COMPOUND": "CCc1cc(OC)ccc1-c1ccc(CC(C)(NC(=O)[C@H](CC(=O)O)NC(=O)[C@H](CO)NC(=O)[C@@H](NC(=O)C(C)(Cc2c(F)cccc2F)NC(=O)[C@@H](NC(=O)CNC(=O)[C@H](CCC(N)=O)NC(=O)C2(C)CCCN2C(=O)[C@H](Cc2c[nH]cn2)NC(=O)[C@@H](N)C(C)C)[C@@H](C)O)[C@@H](C)O)C(=O)NC(CCCc2ccccc2)C(N)=O)cc1 (stereo partly drawn) [compound 28] (H-VH[ξαMeP]QGT[ξαMePhe(2,6-F2)]TSD[ξαMeBip(2'-Et,4'-OMe)][ξhhPhe]-NH2)", "UNIT_INFO": "h", "half-life": 8}
{"COMPOUND": "CCc1cc(OC)ccc1-c1ccc(CC(C)(NC(=O)C(C)(CC(=O)O)NC(=O)[C@H](CO)NC(=O)[C@@H](NC(=O)C(C)(Cc2c(F)cccc2F)NC(=O)[C@@H](NC(=O)CNC(=O)[C@H](CCC(N)=O)NC(=O)C(C)(C)NC(=O)[C@H](Cc2c[nH]cn2)NC(=O)[C@@H](N)C(C)C)[C@@H](C)O)[C@@H](C)O)C(=O)NC(CCCc2ccccc2)C(N)=O)cc1 (stereo partly drawn) [compound 75] (H-VH[Aib]QGT[ξαMePhe(2,6-F2)]TS[ξαMeD][ξαMeBip(2'-Et,4'-OMe)][ξhhPhe]-NH2)", "UNIT_INFO": "h", "half-life": 8}

Give its half-life value. Item: CCc1cc(OC)ccc1-c1ccc(CC(NC(=O)[C@H](CC(=O)O)NC(=O)[C@H](CO)NC(=O)[C@@H](NC(=O)[C@H](Cc2ccccc2)NC(=O)[C@@H](NC(=O)CNC(=O)[C@H](CCC(N)=O)NC(=O)[C@H](CO)NC(=O)[C@H](Cc2c[nH]cn2)NC(=O)[C@@H](N)C(C)C)[C@@H](C)O)[C@@H](C)O)C(=O)NC(C)(CCCc2ccccc2)C(N)=O)cc1 (stereo partly drawn) [compound 81] (H-VHSQGTFTSD[ξBip(2'-Et-4'-OMe)][ξαMe(hhPhe)]-NH2)
8

* * *

Test system: male C57BL/6J mice
Assay: Acute single dose 120-min time-course experiment, in vivo glucose reduction
Parameters: unit not given here
Conditions: 2 μM/kg, oral; 0 min; n = 8, Mean ± SEM
Provide the reported blood glucose level (in vivo glucose reduction) of each item.
Give bare numbers.

Look over these answered cases.
{"COMPOUND": "CCc1cc(OC)ccc1-c1ccc(CC(C)(NC(=O)C(C)(CC(=O)O)NC(=O)[C@H](CO)NC(=O)[C@@H](NC(=O)[C@H](Cc2ccccc2)NC(=O)[C@@H](NC(=O)CNC(=O)[C@H](CCC(N)=O)NC(=O)C(C)(C)NC(=O)[C@H](Cc2c[nH]cn2)NC(=O)[C@@H](N)C(C)C)[C@@H](C)O)[C@@H](C)O)C(=O)NC(CCCc2ccccc2)C(N)=O)cc1 (single isomer, unassigned) [Seq. ID. No. 59]", "MEASURED_RESULT": 184}
{"COMPOUND": "CCc1cc(OC)ccc1-c1ccc(CC(C)(NC(=O)C(C)(CC(=O)O)NC(=O)[C@H](CO)NC(=O)[C@@H](NC(=O)C(C)(Cc2c(F)cccc2F)NC(=O)[C@@H](NC(=O)CNC(=O)[C@H](CCC(N)=O)NC(=O)C2(C)CCCN2C(=O)[C@H](Cc2c[nH]cn2)NC(=O)[C@@H](N)C(C)C)[C@@H](C)O)[C@@H](C)O)C(=O)NC(CCCc2ccccc2)C(N)=O)cc1 (single isomer, unassigned) [Seq. ID. No. 76]", "MEASURED_RESULT": 183}
{"COMPOUND": "CCc1cc(OC)ccc1-c1ccc(CC(NC(=O)[C@H](CC(=O)O)NC(=O)[C@H](CO)NC(=O)[C@@H](NC(=O)C(C)(Cc2c(F)cccc2F)NC(=O)[C@@H](NC(=O)CNC(=O)[C@H](CCC(N)=O)NC(=O)[C@H](CO)NC(=O)[C@H](Cc2c[nH]cn2)NC(=O)[C@@H](N)C(C)C)[C@@H](C)O)[C@@H](C)O)C(=O)NC(C)(CCCc2ccccc2)C(N)=O)cc1 (single isomer, unassigned) [Seq. ID. No. 99]", "MEASURED_RESULT": 184}
{"COMPOUND": "CCc1cc(OC)ccc1-c1ccc(CC(C)(NC(=O)C(C)(CC(=O)O)NC(=O)[C@H](CO)NC(=O)[C@@H](NC(=O)[C@H](Cc2ccccc2)NC(=O)[C@@H](NC(=O)CNC(=O)[C@H](CCC(=O)O)NC(=O)C2(C)CCCN2C(=O)[C@H](Cc2c[nH]cn2)NC(=O)[C@@H](N)C(C)C)[C@@H](C)O)[C@@H](C)O)C(=O)NC(CCCc2ccccc2)C(N)=O)cc1 (single isomer, unassigned) [Seq. ID. No. 64]", "MEASURED_RESULT": 183}

Field: next compound
Returns the measured blood glucose level (in vivo glucose reduction) for the input compound. Input: CCc1cc(OC)ccc1-c1ccc(CC(NC(=O)C(C)(CC(=O)O)NC(=O)C(C)(CO)NC(=O)[C@@H](NC(=O)C(C)(Cc2c(F)cccc2F)NC(=O)[C@@H](NC(=O)CNC(=O)[C@H](CCC(=O)O)NC(=O)C(C)(C)NC(=O)[C@H](Cc2c[nH]cn2)NC(=O)[C@@H](N)C(C)C)[C@@H](C)O)[C@@H](C)O)C(=O)NC(C)(CCCc2ccccc2)C(N)=O)cc1 (single isomer, unassigned) [Seq. ID. No. 129]
183
